These measurements were taken from PubChem BioAssay (NCI).

So I've got a bunch of compounds here, and I need their TGI values.
Test system: SK-MEL-2 melanoma
PROCEDURE_DETAILS: NCI tumour cell line growth inhibition, 48 h
Answers are plain numbers, in µM.

COMPOUND: CCCCCCC(=O)c1ccc2ccccc2c1O
STUDY_SYSTEM: SK-MEL-2 melanoma
UNIT_ANNOTATION: µM
VALUE: 67.5
--
COMPOUND: c1ccc(N2N=C3N(c4ccccc4)C2N3c2ccccc2)cc1
STUDY_SYSTEM: SK-MEL-2 melanoma
UNIT_ANNOTATION: µM
VALUE: 73
--
COMPOUND: O=S(=O)(NCCNc1cc(-c2cn(-c3ccccc3)nc2-c2cccc(O)c2)ccn1)c1ccc(Br)cc1
STUDY_SYSTEM: SK-MEL-2 melanoma
UNIT_ANNOTATION: µM
VALUE: 4.79
--
COMPOUND: COC(=O)C1(Cc2ccc(C)cc2)Cc2c(C)cccc2C1=O (centres undefined)
STUDY_SYSTEM: SK-MEL-2 melanoma
UNIT_ANNOTATION: µM
VALUE: 28.7
--
COMPOUND: C=CC(C)(C)n1cc(C2=C(O)C(=O)C(c3c(CC=C(C)C)[nH]c4ccccc34)=C(O)C2=O)c2ccccc21
STUDY_SYSTEM: SK-MEL-2 melanoma
UNIT_ANNOTATION: µM
VALUE: 3.41

Continue with the next compound.
Exercise: Give TGI for `Cc1ccc(-n2c3c(c4c(CN)c(O)ccc42)CCc2ccccc2C3=O)cc1`
Key: 26.9

---

Test system: OVCAR-8 ovarian
PROCEDURE_DETAILS: NCI tumour cell line growth inhibition, 48 h
So I've got a bunch of molecules here, and I need their TGI values.

Worked examples follow.
MOLECULE: OCCCCCNc1ccnc2cc(Cl)ccc12
TGI: > 100 µM
--
MOLECULE: CO/N=C(\C(=O)[N-][n+]1cnn(CC(=O)O)c1)c1csc(N)n1
TGI: > 10 µM
--
MOLECULE: O=C(c1cccc2cc(O)ccc12)c1cn(CCN2CCOCC2)c2ccccc12
TGI: > 100 µM
--
MOLECULE: N#CC1=C(S)N(C2OC(CO)C(O)C(O)C2O)C(c2ccccc2)=CC1c1cccs1 (stereo not given)
TGI: 65.9 µM
--
MOLECULE: C=C(C)[C@@H]1CC[C@]2(CN)CC[C@]3(C)[C@H](CC[C@@H]4[C@@]5(C)CCC(N)[C@@](C)(CO)[C@@H]5CC[C@]43C)[C@@H]12 (stereo not given in full)
TGI: 3.57 µM
--
MOLECULE: CNC(=O)OCC1=C(COC(=O)NC)C(C)N(c2ccccc2)C1 (stereo not given)
TGI: > 100 µM

Return reported TGI values for all items listed beneath this line.
1. CN(/N=C/c1ccccc1C(=O)O)C1=NCCCCN1
2. CC(C)Cc1ccc(C(C)/C=C2\CCC(CN3CCCCC3)C2=O)cc1 (stereo not given)
3. COc1ccc(NC(=S)Nc2c(C)n(C)n(-c3ccccc3)c2=O)cc1

Key:
> 100 µM
12.8 µM
> 100 µM

Exercise: Give TGI for this entry on OVCAR-8 ovarian: `Cc1nc2ccccc2c(/C=C/c2ccccc2)c1C(=O)/C=C/c1ccccc1`
Key: 5.67 µM

---

System: NCI-H460 lung
PROCEDURE_DETAILS: NCI tumour cell line growth inhibition, 48 h
So I've got a bunch of compounds here, and I need their TGI values.
Give bare numbers, in µM.

Worked examples follow.
COMPOUND: CC(C)(C)C(=O)CC(=O)C(F)(F)C(F)(F)C(F)(F)F.[Ag]
UNIT_ANNOTATION: µM
TGI: 46.9

COMPOUND: O=C(Nc1ccc(N2CCNCC2)cn1)c1[nH]ncc1Nc1ncnc2sccc12
UNIT_ANNOTATION: µM
TGI: 3.57

COMPOUND: CCCCCCC/C=C1\CCC(CN(C)C)C1=O (configuration not stated)
UNIT_ANNOTATION: µM
TGI: 40.5

COMPOUND: COC(=O)C1(Cc2ccc(C)cc2)Cc2c(C)cccc2C1=O (configuration not stated)
UNIT_ANNOTATION: µM
TGI: 39.2

COMPOUND: COc1ccc2c(c1)c(=O)c1c(NCCCN(C)C)ccc3ncn2c31
UNIT_ANNOTATION: µM
TGI: 8.03

COMPOUND: COc1ccc(-c2c3c(nc4[nH]c(=S)[nH]c(=S)c24)CCCC3)cc1OC
UNIT_ANNOTATION: µM
TGI: 42.9

Return reported TGI values for all items listed beneath this line.
1. CCOC(=O)/C=C(/C(=O)OCC)n1ccc(=O)n(CC(=O)OCC)c1=O
2. Cn1cc2ccccc2c1-c1nc(F)nc(Nc2ccc(N)cc2)n1

Key:
[15.1, 31.5]

Return reported TGI values for all items listed beneath this line.
1. O=c1c(-c2nc3ccccc3[nH]2)cc2ccccc2n1Cc1cn(Cc2ccccc2Cl)nn1
2. COc1cc2c3c(c1OC)C(=O)C(=O)C1=C3N(CCC1)CC2

Key:
[3.88, 37.5]

---

Tested on: NCI-H522 lung
PROCEDURE_DETAILS: NCI tumour cell line growth inhibition, 48 h
So I've got a bunch of compounds here, and I need their TGI values.

MOLECULE: CC1(C)Oc2ccccc2[N+]([O-])=C1c1ccccc1
QUANTITY: TGI
VALUE: > 100 µM
--
MOLECULE: C(/C=C/Nc1ccc(-c2ccccc2)cc1)=Nc1ccc(-c2ccccc2)cc1
QUANTITY: TGI
VALUE: > 100 µM

Return reported TGI values for all items listed beneath this line.
1. Cc1ccc2c(=O)c(C(=O)NNC(=S)NC3CCCCC3)c[nH]c2n1
2. CCCCn1c(C)c2c(c1C)C(=O)N(CCN1CCN(c3ccccc3Cl)CC1)C2=O
3. C#CCN(Cc1nc2cc(C(F)(F)F)ccc2nc1-c1ccccc1)c1ccc(F)cc1

Key:
> 100 µM
78.7 µM
> 100 µM

---

So I've got a bunch of molecules here, and I need their TGI values.
System: SW-620 colon
PROCEDURE_DETAILS: NCI tumour cell line growth inhibition, 48 h

Worked examples follow.
MOLECULE: COC(=O)[C@H](Cc1cn(C)cn1)NC(=O)[C@@H](NC(=O)Nc1cc(C(F)(F)F)cc(C(F)(F)F)c1)C(C)(C)C
TGI: > 10 µM
//
MOLECULE: FC(F)(F)C1(c2ccccc2)SCc2nc3ccccc3n21 (centres undefined)
TGI: > 100 µM
//
MOLECULE: O=C1CSC(c2cccc(Oc3ccccc3)c2)N1c1cccc(Cl)c1Cl (centres undefined)
TGI: > 100 µM
//
MOLECULE: CC(c1ccccc1)C(O)S(=O)(=O)O (centres undefined)
TGI: > 100 µM
//
MOLECULE: CCN(CC)CCC(=O)N1C/C(=C/c2ccccc2)C(=O)/C(=C\c2ccccc2)C1
TGI: 0.629 µM

Return reported TGI values for all items listed beneath this line.
1. Cc1ccccc1C[P+](c1ccccc1)(c1ccccc1)c1ccccc1
2. C/C(=N\Nc1nc2ccccc2o1)c1cc2ccccc2cn1
3. COc1ccc2c(c1)OC1c3ccccc3OCC21 (centres undefined)

Key:
1. > 100 µM
2. > 100 µM
3. > 100 µM

---

Test system: A549 NSCLC
PROCEDURE_DETAILS: NCI tumour cell line growth inhibition, 48 h
QUANTITY: GI50

COMPOUND: CCC1(N)C(=O)OCc2c1cc1n(c2=O)Cc2cc3ccccc3nc2-1 (centres undefined)
GI50: 5.05 µM
//
COMPOUND: Cc1cc(C)c(O)c(CNCCCNCc2cc(C)cc(C)c2O)c1
GI50: 11 µM
//
COMPOUND: CCN(CC)CCOc1ccc(Cc2ccccc2)cc1
GI50: 49.8 µM

Continue with the next compound.
Exercise: Give GI50 for this entry on A549 NSCLC: `CC(C)c1cc(C(=O)[O-])c(O)c(C(C)C)c1.CC(C)c1cc(C(=O)[O-])c(O)c(C(C)C)c1.CC(C)c1cc(C(=O)[O-])c(O)c(C(C)C)c1.CC(C)c1cc(C(=O)[O-])c(O)c(C(C)C)c1.CC(C)c1cc(C(=O)[O-])c(O)c(C(C)C)c1.CC(C)c1cc(C(=O)[O-])c(O)c(C(C)C)c1.[Cu+2].[Mn+2].[Mn+2]`
Key: 11.1 µM

---

System: IGROV1 ovarian
PROCEDURE_DETAILS: NCI tumour cell line growth inhibition, 48 h
QUANTITY: TGI

MOLECULE: CCOc1cc(/C=C2\N=C(c3ccccc3)N(c3nc4ccccc4s3)C2=O)ccc1O
STUDY_SYSTEM: IGROV1 ovarian
TGI: > 100 µM

MOLECULE: CCOC(=O)NC(=O)c1cn(C2OC(COC(=O)CCCCCCCCC(=O)OCC3OC(n4cc(C(=O)NC(=O)OCC)c(=O)[nH]c4=O)C4OC(C)(C)OC34)C3OC(C)(C)OC32)c(=O)[nH]c1=O (stereo not given)
STUDY_SYSTEM: IGROV1 ovarian
TGI: > 100 µM

MOLECULE: O=C(Nc1ccc(N2CCNCC2)cn1)c1[nH]ncc1Nc1ncnc2sccc12
STUDY_SYSTEM: IGROV1 ovarian
TGI: 24.6 µM

Return reported TGI values for all items listed beneath this line.
1. CC(C)(C)C(=O)CC(=O)C(F)(F)C(F)(F)C(F)(F)F.[Ag]
2. C=COC(=O)N1C2CCCC(Cl)(C(C)=O)C1CC2 (stereo not given)

Key:
1. 26.5 µM
2. > 100 µM
